Data origin, for the record: PubChem BioAssay AID1159580

- experimental-details: chemical genetic growth profiling, strain panel (AID 1159580);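 also: tested at 20 µM; growth read once vehicle control cultures reached saturation at 30 °C; 1 = growth at the plate median or of vehicle wells; lower values mean less growth of the strain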
- condition-context: S. cerevisiae deletion strains, growth OD, locus YER110C, hits give low values
Hit rate of the full screen: of about 5,500 compounds, about 2,000 (36%) were called active. About 18% were inconclusive and are not listed. The list shows a part of the results.
property: normalized growth
A bare number is all that is needed in reply.

Q: Returns the measured normalized growth for the input compound. Input: NS(=O)(=O)c1cc2c(cc1Cl)NC(C1CC3C=CC1C3)NS2(=O)=O (configuration not stated)
A: 0.937

Q: Returns the measured normalized growth for the input compound. Input: COC(=O)CCC(=O)O[C@H]1CCC2(C)C(CCC3C2C(=O)[C@@H](O)C2(C)C3CC3OC4(CCC(C)CO4)[C@@H](C)C32)C1 (some centres not stated)
A: 0.996

Q: Returns the measured normalized growth for the input compound. Input: CC(CN1c2ccccc2Sc2ccccc21)N(C)C (configuration not stated)
A: 0.971

Q: Returns the measured normalized growth for the input compound. Input: N[C@@H](Cc1cc(I)c(Oc2ccc(O)c(I)c2)c(I)c1)C(=O)O
A: 1

Q: Returns the measured normalized growth for the input compound. Input: CC(=O)Nc1ccccc1
A: 0.977

Q: Returns the measured normalized growth for the input compound. Input: N#C/C(=C\c1cccc(O)c1)C(=O)O
A: 0.942

Q: Returns the measured normalized growth for the input compound. Input: O=C(Nc1ccccc1)Nc1ccccc1
A: 0.967

Q: Returns the measured normalized growth for the input compound. Input: COc1cc(OC)c2c3c1C(=O)c1c(OC)cc(C)c4c(OC)cc(c-3c14)C(C)(C)C2=O
A: 0.988

Q: Returns the measured normalized growth for the input compound. Input: N[C@H](Cc1ccccc1)C(=O)O
A: 1

Q: Returns the measured normalized growth for the input compound. Input: C[C@H](N)[C@H](O)c1cccc(O)c1
A: 0.973

Q: Returns the measured normalized growth for the input compound. Input: Clc1ccc2c(c1)C(N1CCNCC1)=Nc1ccccc1O2
A: 0.978

Q: Returns the measured normalized growth for the input compound. Input: CN1CCN(C2=Nc3ccccc3Oc3ccc(Cl)cc32)CC1
A: 0.985
